The origin of these recorded values is paper PMC4475429.

# system_under_test: PKA RIα (Homo sapiens, UniProt P10644)
# Sequence (P10644 whole entry): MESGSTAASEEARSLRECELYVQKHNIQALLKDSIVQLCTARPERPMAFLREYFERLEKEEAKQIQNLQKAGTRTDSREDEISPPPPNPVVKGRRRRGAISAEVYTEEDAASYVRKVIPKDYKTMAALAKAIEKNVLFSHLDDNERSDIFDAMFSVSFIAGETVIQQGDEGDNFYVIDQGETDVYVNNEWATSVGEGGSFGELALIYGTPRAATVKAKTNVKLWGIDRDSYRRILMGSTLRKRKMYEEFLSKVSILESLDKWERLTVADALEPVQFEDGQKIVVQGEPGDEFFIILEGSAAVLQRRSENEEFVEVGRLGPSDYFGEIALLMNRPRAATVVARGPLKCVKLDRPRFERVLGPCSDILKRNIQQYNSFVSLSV
# assay_explanation: fluorescence polarization competition vs RI-STAD-3
assay_readout: pIC50
Answers are plain numbers, as −log10 of the molar value.

# input binder: WKNVLQGGESTKERFENSNIGTA [Ht31 AKB] ; wanted: its pIC50 5.82
